# System: HeLa
# experimentalProtocol: Antiproliferative activity against human HeLa cells after 72 hrs by MTT assay
# Format: functional, cell-based
pIC50: −log10 of the molar value.
measuredAttribute: pIC50

- molecule: "NC1CCN(C(=O)c2coc3c(O)c4c(c(O)c23)C(=O)c2ccccc2C4=O)CC1"
  measuredAttribute: "pIC50"
  number: 5.38
- molecule: "Cc1oc2c(O)c3c(c(O)c2c1CN1CC[C@@H](N)C1)C(=O)c1ccccc1C3=O"
  measuredAttribute: "pIC50"
  number: 5.55

(1) CN[C@H]1CCN(C(=O)c2coc3c(O)c4c(c(O)c23)C(=O)c2ccccc2C4=O)C1
(2) O=C1c2ccccc2C(=O)c2c1c(O)c1occ(C(=O)NC3CCNCC3)c1c2O
(Q) Choose between 1 and 2 : whose measured pIC50 value is numerically larger? Please reply using the label of the selected record.
(A) 2
(2: 5.96, 1: 5.30)

(P) N[C@@H]1CCN(C(=O)c2coc3c(O)c4c(c(O)c23)C(=O)c2ccccc2C4=O)C1
(Q) O=C1c2ccccc2C(=O)c2c1c(O)c1occ(C(=O)NC3CCCNC3)c1c2O (racemic)
(R) COc1c2c(c(OC)c3c(C(=O)N4CC[C@H](N)C4)c(C)oc13)C(=O)c1ccccc1C2=O
(S) O=C1c2ccccc2C(=O)c2c1c(O)c1occ(C(=O)NC3CCNC3)c1c2O (racemic)
(Q) # sort list by recorded pIC50, greatest to least Form field (ranking): labels in requested order.
(A) Q, S, P, R

(I) Cc1oc2c(N)c3c(c(N)c2c1C(=O)N1CC[C@H](N)C1)C(=O)c1ccccc1C3=O
(II) Cc1oc2c(O)c3c(c(O)c2c1CN1CC[C@H](N)C1)C(=O)c1ccccc1C3=O
(Q) Which entry shows the lesser value of pIC50 here, I or II ? # reply format: chosen label
(A) I

(1) Cc1oc2c(Cl)c3c(c(Cl)c2c1C(=O)N1CC[C@H](N)C1)C(=O)c1ccccc1C3=O
(2) N[C@H]1CCN(C(=O)c2coc3c(O)c4c(c(O)c23)C(=O)c2ccccc2C4=O)C1
(Q) When the recorded pIC50 values are compared, which is smaller: that of 1 or that of 2 ? State your choice using its label.
(A) 1
(1: 5.30, 2: 6.00)

* * *

# experimentalProtocol: Resistance index, ratio of IC50 for human K562/4 cells to IC50 for human K562 cells
# Assay type: functional
Here the recorded Ratio IC50 is given for each entry.
API note: the answer field is a bare number with no unit suffix.

- molecule: "Cc1oc2c(O)c3c(c(O)c2c1C(=O)N1CC[C@H](N)C1)C(=O)c1ccccc1C3=O"
  number: 1.5
- molecule: "O=C1c2ccccc2C(=O)c2c1c(O)c1occ(C(=O)NC3CCNC3)c1c2O (racemic)"
  number: 5
- molecule: "Cc1oc2c(O)c3c(c(O)c2c1CN1CC[C@@H](N)C1)C(=O)c1ccccc1C3=O"
  number: 1.6

(Q) Quick one: Ratio IC50 for O=C1c2ccccc2C(=O)c2c1c(O)c1occ(C(=O)NC3CCNCC3)c1c2O ?
(A) 2.3

(Q) Quick check: Ratio IC50 of N[C@H]1CCN(C(=O)c2coc3c(O)c4c(c(O)c23)C(=O)c2ccccc2C4=O)C1 ?
(A) 1.3

* * *

# experimentalProtocol: Resistance index, ratio of IC50 for human K562/4 cells to IC50 for human K562 cells
# Format: functional
measuredAttribute: Ratio IC50
Give your answer as a number; write no unit.

- compound: "COc1c2c(c(OC)c3c(C(=O)N4CC[C@H](N)C4)c(C)oc13)C(=O)c1ccccc1C2=O"
  number: 1.4

(Q) For the compound shown here, NC1CCN(C(=O)c2coc3c(O)c4c(c(O)c23)C(=O)c2ccccc2C4=O)CC1 , give the reported Ratio IC50.
(A) 4.2

(Q) Dear colleague, I am looking for the recorded Ratio IC50 of the following compound: CN[C@H]1CCN(C(=O)c2coc3c(O)c4c(c(O)c23)C(=O)c2ccccc2C4=O)C1
(A) 1.9

(Q) Any idea what its Ratio IC50 is? The compound is Cc1oc2c(O)c3c(c(O)c2c1CN1CC[C@H](N)C1)C(=O)c1ccccc1C3=O
(A) 1.4

(Q) // lookup Ratio IC50 for N[C@H]1CCN(C(=O)c2c(C(F)(F)F)oc3c(O)c4c(c(O)c23)C(=O)c2ccccc2C4=O)C1
(A) 0.6

(Q) Record request: Ratio IC50 value, item Cc1oc2c(Cl)c3c(c(Cl)c2c1C(=O)N1CC[C@H](N)C1)C(=O)c1ccccc1C3=O
(A) 1.4

(Q) Value lookup for Ratio IC50; key = NC1CCCN(C(=O)c2coc3c(O)c4c(c(O)c23)C(=O)c2ccccc2C4=O)C1 (racemic)
(A) 2

(Q) What does the record list as Ratio IC50 for Cc1oc2c(N)c3c(c(N)c2c1C(=O)N1CC[C@H](N)C1)C(=O)c1ccccc1C3=O ?
(A) 0.9

* * *

Overview of recorded Ratio IC50 for various compounds
# experimentalProtocol: Resistance index, ratio of IC50 for p53 knockout human HCT116 cells to IC50 for human HCT116 cells
# Format: functional
Give your answer as a number; write no unit.

Below, 2 compounds whose answers are already recorded.
- compound: "CN1CCN(NC(=O)c2coc3c(O)c4c(c(O)c23)C(=O)c2ccccc2C4=O)CC1"
  number: 1
- compound: "Cc1oc2c(Cl)c3c(c(Cl)c2c1C(=O)N1CC[C@H](N)C1)C(=O)c1ccccc1C3=O"
  number: 0.9

(Q) Using the record for NC1CCCN(C(=O)c2coc3c(O)c4c(c(O)c23)C(=O)c2ccccc2C4=O)C1 (racemic) , report its Ratio IC50.
(A) 0.8

(Q) Could you tell me which Ratio IC50 is on file for COc1c2c(c(OC)c3c(C(=O)N4CC[C@H](N)C4)c(C)oc13)C(=O)c1ccccc1C2=O ?
(A) 1.2

(Q) # query: Ratio IC50 of entry Cc1oc2c(O)c3c(c(O)c2c1CN1CC[C@@H](N)C1)C(=O)c1ccccc1C3=O
(A) 1

* * *

Listed below: Ratio IC50 values for each entry.
# experimentalProtocol: Resistance index, ratio of IC50 for p53 knockout human HCT116 cells to IC50 for human HCT116 cells
# Type: functional
Reply briefly: the number, and no unit.

Examples from the recorded data:
- molecule: "Cc1oc2c(O)c3c(c(O)c2c1CN1CC[C@H](N)C1)C(=O)c1ccccc1C3=O"
  Ratio IC50: 0.8
- molecule: "N[C@H]1CCN(C(=O)c2c(C(F)(F)F)oc3c(O)c4c(c(O)c23)C(=O)c2ccccc2C4=O)C1"
  Ratio IC50: 0.9
- molecule: "O=C1c2ccccc2C(=O)c2c1c(O)c1occ(C(=O)NC3CCNC3)c1c2O (racemic)"
  Ratio IC50: 1.3

(Q) Ratio IC50 lookup needed for N[C@H]1CCN(C(=O)c2coc3c(O)c4c(c(O)c23)C(=O)c2ccccc2C4=O)C1 , thanks.
(A) 1.2

* * *

# System: HeLa
# experimentalProtocol: Antiproliferative activity against human HeLa cells after 72 hrs by MTT assay
# Format: functional, cell-based
pIC50: −log10 of the molar value.
measuredAttribute: pIC50

(1) NC1CCCN(C(=O)c2coc3c(O)c4c(c(O)c23)C(=O)c2ccccc2C4=O)C1 (racemic)
(2) Cc1oc2c(O)c3c(c(O)c2c1C(=O)N1CC[C@H](N)C1)C(=O)c1ccccc1C3=O
(3) N[C@H]1CCN(C(=O)c2c(C(F)(F)F)oc3c(O)c4c(c(O)c23)C(=O)c2ccccc2C4=O)C1
(Q) Sort key = pIC50. Sort direction = ascending. Apply to the list above. List the labels in the requested order.
(A) 3, 1, 2
(3: 5.36, 1: 5.64, 2: 6.15)

* * *

Form field: Ratio IC50 (one value per entry).
# experimentalProtocol: Resistance index, ratio of IC50 for human K562/4 cells to IC50 for human K562 cells
# Format: functional
Respond numerically, and do not add a unit to the figure.

// below: answered molecules
- molecule: "N[C@@H]1CCN(C(=O)c2coc3c(O)c4c(c(O)c23)C(=O)c2ccccc2C4=O)C1"
  number: 1.6
- molecule: "O=C1c2ccccc2C(=O)c2c1c(O)c1occ(C(=O)NC3CCCNC3)c1c2O (racemic)"
  number: 2.1

(Q) Requested read-out: Ratio IC50. Entry: CN1CCN(NC(=O)c2coc3c(O)c4c(c(O)c23)C(=O)c2ccccc2C4=O)CC1
(A) 1.4

* * *

# Lookup of reported Ratio IC50 keyed by entry
# experimentalProtocol: Resistance index, ratio of IC50 for p53 knockout human HCT116 cells to IC50 for human HCT116 cells
# Assay type: functional
# answer = number (no unit)

- compound: "Cc1oc2c(N)c3c(c(N)c2c1C(=O)N1CC[C@H](N)C1)C(=O)c1ccccc1C3=O"
  Ratio IC50: 0.7

(Q) Item NC1CCN(C(=O)c2coc3c(O)c4c(c(O)c23)C(=O)c2ccccc2C4=O)CC1 has what recorded Ratio IC50?
(A) 1.7

(Q) Given O=C1c2ccccc2C(=O)c2c1c(O)c1occ(C(=O)NC3CCNCC3)c1c2O , state its recorded Ratio IC50.
(A) 1

(Q) Which Ratio IC50 value is on record for N[C@@H]1CCN(C(=O)c2coc3c(O)c4c(c(O)c23)C(=O)c2ccccc2C4=O)C1 ?
(A) 1

(Q) Please report the recorded Ratio IC50 for CN[C@H]1CCN(C(=O)c2coc3c(O)c4c(c(O)c23)C(=O)c2ccccc2C4=O)C1 .
(A) 1

(Q) Look up Ratio IC50: Cc1oc2c(O)c3c(c(O)c2c1C(=O)N1CC[C@H](N)C1)C(=O)c1ccccc1C3=O
(A) 1.1

(Q) Tell me the measured Ratio IC50 of O=C1c2ccccc2C(=O)c2c1c(O)c1occ(C(=O)NC3CCCNC3)c1c2O (racemic) , please.
(A) 1.3
